In this section, each of the variants is paired with its reported protein stability index.
B1: ZNF75A (parent)
chain: RTHTGEQPYTCSICRRNFSRRSSL

variants of: B1; test: protein stability index of a GFP-peptide fusion (GPS, HEK-293T) (PSI 1-6); higher = more stable; conditions: c terminus: a fixed tail appended;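 also: lentivirally expressed fusions sorted by FACS into six bins by GFP to DsRed ratio, PSI derived from sequencing read proportions per bin multiplied by bin number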
# output: bare number, no unit

P8I	2.99
N17C	3.01

Request: Reported protein stability index for `S19E` : what is it?
Result: 3.05
